system_name: RORc ligand binding domain (Homo sapiens)
Construct: host or cells: E. coli
Sequence (P51449 269-508 limits assumed, species assumed): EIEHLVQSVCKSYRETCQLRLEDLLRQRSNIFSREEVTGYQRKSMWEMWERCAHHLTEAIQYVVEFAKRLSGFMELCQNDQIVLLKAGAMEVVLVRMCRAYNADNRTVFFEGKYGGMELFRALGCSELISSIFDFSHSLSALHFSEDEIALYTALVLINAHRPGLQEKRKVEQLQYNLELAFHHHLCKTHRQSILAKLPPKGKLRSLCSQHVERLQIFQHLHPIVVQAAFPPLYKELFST
assay_notes: In Vitro RORc Ligand Binding Assay (25-[3H]hydroxycholesterol radioligand filtration)
assay_context: In Vitro RORc Ligand Binding Assay; Table 4; read-out: RORc IC50
metric_name: IC50 (nM)

Some molecules with known IC50 results, for comparison:
INSERT INTO assay_data (molecule, metric_name, numeric_result) VALUES
  ('C[C@H]1CCC(c2ccccc2)S(=O)(=O)N1Cc1ccc(N2CCN3C(=O)CNC(=O)[C@H]3C2)cc1F (stereo partly drawn) [Example 396]', 'IC50', 3250),
  ('C[C@H]1CCC(c2ccccc2)S(=O)(=O)N1Cc1ccc(C(=O)N2CC3(CCOC3)C2)cc1 (stereo partly drawn) [Example 372]', 'IC50', 3040);

(A) C[C@H](O)C(=O)N1CCCN(c2ccc(CN3[C@@H](C)CCC(c4ccccc4)S3(=O)=O)c(F)c2)CC1 (single isomer, unassigned) [Example 91]
(B) CC(=O)N1CCN(c2ccc(CN3[C@@H](C)CCC(c4ccccc4)S3(=O)=O)c(F)c2)CC1 (single isomer, unassigned) [Example 18]
(C) C[C@H]1CCC(c2ccccc2)S(=O)(=O)N1Cc1ccc(C(=O)N2CCCC2CCNS(C)(=O)=O)cc1 (stereo partly drawn) [Example 357]
(D) C[C@H]1CCC(c2ccccc2)S(=O)(=O)N1Cc1ccc(C(=O)NC2CCOCC2)cc1 (single isomer, unassigned) [Example 267]
Order field: IC50 | Direction: descending (largest first) Output spec: labels arranged per the requested ranking.
D, A, C, B

// data source = patent US9115101B2
